- method_notes: Selectivity index, IC50 for african green monkey Vero cells to IC50 for Trypanosoma cruzi Tulahuen C4
- Assay type: functional
Ratio IC50 listing for selected molecules.

| molecule | Ratio IC50 |
| --- | --- |
| C=CCOc1cc(OC)c(C(=O)/C=C/c2ccc(Cl)cc2)c(OCC=C)c1 | 1.2 |
| C=CCOc1cc(OC)c(C(=O)/C=C/c2ccccc2F)c(OCC=C)c1 | 2.6 |
| C=CCOc1cc(OC)c(C(=O)/C=C/c2cc(OCC=C)c(Br)c(OCC=C)c2)c(OCC=C)c1 | 13.9 |
| C=CCOc1cc(OC)c(C(=O)/C=C/c2ccccn2)c(OCC=C)c1 | 1.5 |
| C=CCOc1cc(OC)c(C(=O)/C=C/c2ccc(OC)cc2)c(OCC=C)c1 | 4.7 |
| COc1cc(O)cc(O)c1C(=O)/C=C/c1ccc2c(c1)OCO2 | 2.7 |
| C=CCOc1cc(OC)c(C(=O)/C=C/c2cc(OC)c(OC)c(OC)c2)c(OCC=C)c1 | 12 |
| C=CCOc1cc(OC)c(C(=O)/C=C/c2ccccc2Br)c(OCC=C)c1 | 1 |
| C=CCOc1cc(OC)c(C(=O)/C=C/c2cccc(OC)c2)c(OCC=C)c1 | 9.9 |
| C=CCOc1cc(OC)c(C(=O)/C=C/c2ccc(C)cc2)c(OCC=C)c1 | 12.3 |
| C=CCOc1cc(OC)c(C(=O)/C=C/c2ccco2)c(OCC=C)c1 | 15.6 |
| C=CCOc1cc(OC)c(C(=O)/C=C/c2ccc(O)cc2)c(OCC=C)c1 | 3.8 |
| C=CCOc1cc(OC)c(C(=O)/C=C/c2ccc(F)cc2)c(OCC=C)c1 | 0.9 |
| C=CCOc1cc(OC)c(C(=O)/C=C/c2ccncc2)c(OCC=C)c1 | 1.9 |
| C=CCOc1cc(OC)c(C(=O)/C=C/c2ccc3c(c2)OCO3)c(OCC=C)c1 | 5.4 |
| CC1CS(=O)(=O)CCN1/N=C/c1ccc([N+](=O)[O-])o1 (stereo not given) | 154 |
| C=CCOc1cc(OC)c(C(=O)/C=C/c2ccccc2)c(OCC=C)c1 | 1 |
| C=CCOc1cc(OC)c(C(=O)/C=C/c2ccc(C(F)(F)F)cc2)c(OCC=C)c1 | 0.5 |
| C=CCOc1cc(OC)c(C(=O)/C=C/c2ccc([N+](=O)[O-])cc2)c(OCC=C)c1 | 3.1 |
| C=CCOc1cc(OC)c(C(=O)/C=C/c2ccc(OC)cc2OC)c(OCC=C)c1 | 7.1 |

----------
- Tested on: Trypanosoma cruzi
- method_notes: Antitrypanosomal activity against Trypanosoma cruzi Tulahuen C4 in african green monkey Vero cells after 120 hrs
- Assay type: functional, organism-based
pIC50: −log10 of the molar value.

| line_notation | subject_of_test | qualifier_operator | pIC50 |
| --- | --- | --- | --- |
| C=CCOc1cc(OC)c(C(=O)/C=C/c2ccc(O)cc2)c(OCC=C)c1 | Trypanosoma cruzi | = | 4.69 |
| C=CCOc1cc(OC)c(C(=O)/C=C/c2ccc3c(c2)OCO3)c(OCC=C)c1 | Trypanosoma cruzi | = | 4.87 |
| COc1cc(O)c(C(=O)/C=C/c2ccc3c(c2)OCO3)c(OC)c1 | Trypanosoma cruzi | < | 4.60 |
| COc1ccc(/C=C/C(=O)c2c(O)cc(O)cc2OC)cc1 | Trypanosoma cruzi | < | 4.60 |
| C=CCOc1cc(OC)c(C(=O)/C=C/c2ccccn2)c(OCC=C)c1 | Trypanosoma cruzi | = | 5.72 |
| C=CCOc1cc(OC)c(C(=O)/C=C/c2ccccc2F)c(OCC=C)c1 | Trypanosoma cruzi | = | 5.21 |
